measurement.description: phase 1 plasma pharmacokinetics, Cycle 1 Days 1 and 15
Assay type: in vivo, human
measurement.parameters: human, plasma, po, 200 mg, 200 mg BID oral, n = 3, Day 15; read-out: T max, median (range)
measurement.name: Tmax (h)

compound | measurement.name | unit.descriptor | observed
CNC(=O)c1ccc(Nc2ncc(C(F)(F)F)c(NCc3nccnc3N(C)S(C)(=O)=O)n2)cc1 [VS-6063, defactinib] | Tmax | h | 2

====

measurement.description: phase 1 plasma pharmacokinetics, Cycle 1 Days 1 and 15
Type: in vivo, human
measurement.parameters: human, plasma, po, 600 mg, 600 mg BID oral, n = 3, Day 15; read-out: AUC0–12h, GM (CV %)
measurement.name: AUC(0-t) (ng·h/mL)

structure.notation | observed
CNC(=O)c1ccc(Nc2ncc(C(F)(F)F)c(NCc3nccnc3N(C)S(C)(=O)=O)n2)cc1 | 4880

====

measurement.description: phase 1 plasma pharmacokinetics, Cycle 1 Days 1 and 15
Assay type: in vivo, human
measurement.parameters: human, plasma, po, 200 mg, 200 mg BID oral, n = 3, Day 1; read-out: AUC0–12h, GM (CV %)

structure.notation | unit.descriptor | AUC(0-t)
CNC(=O)c1ccc(Nc2ncc(C(F)(F)F)c(NCc3nccnc3N(C)S(C)(=O)=O)n2)cc1 | ng·h/mL | 3780

====

measurement.description: phase 1 plasma pharmacokinetics, Cycle 1 Days 1 and 15
Format: in vivo, human
measurement.parameters: human, plasma, po, 600 mg, 600 mg BID oral, n = 3, Day 15; read-out: t 1/2, median (range) (converted)

structure.notation | half-life (h)
CNC(=O)c1ccc(Nc2ncc(C(F)(F)F)c(NCc3nccnc3N(C)S(C)(=O)=O)n2)cc1 | 2.27

====

measurement.description: phase 1 plasma pharmacokinetics, Cycle 1 Days 1 and 15
Assay type: in vivo, human
measurement.parameters: human, plasma, oral, 200–600 mg BID, Days 1 and 15; read-out: median half-life values, range across all dose regimens and both PK study days
measurement.name: half-life

structure.notation | measurement.name | observed
CNC(=O)c1ccc(Nc2ncc(C(F)(F)F)c(NCc3nccnc3N(C)S(C)(=O)=O)n2)cc1 | half-life | 2.3 to 4.3 h

====

measurement.description: phase 1 plasma pharmacokinetics, Cycle 1 Days 1 and 15
Type: in vivo, human
measurement.parameters: human, plasma; 400 mg BID oral, n = 3, Day 1

structure.notation | unit.descriptor | AUC(0-inf)
CNC(=O)c1ccc(Nc2ncc(C(F)(F)F)c(NCc3nccnc3N(C)S(C)(=O)=O)n2)cc1 | ng·h/mL | 3840

====

measurement.description: phase 1 plasma pharmacokinetics, Cycle 1 Days 1 and 15
Assay type: in vivo, human
measurement.parameters: human, plasma, po, 400 mg, 400 mg BID oral, n = 3, Day 1

structure.notation | Cmax (ng/mL)
CNC(=O)c1ccc(Nc2ncc(C(F)(F)F)c(NCc3nccnc3N(C)S(C)(=O)=O)n2)cc1 | 670

====

measurement.description: phase 1 plasma pharmacokinetics, Cycle 1 Days 1 and 15
Assay type: in vivo, human
measurement.parameters: human, plasma, po, oral doses of 200–600 mg BID, all cohorts; read-out: Tmax range

structure.notation | Tmax
CNC(=O)c1ccc(Nc2ncc(C(F)(F)F)c(NCc3nccnc3N(C)S(C)(=O)=O)n2)cc1 | 0.5 to 4 h

====

measurement.description: phase 1 plasma pharmacokinetics, Cycle 1 Days 1 and 15
Type: in vivo, human
measurement.parameters: human, plasma, po, 400 mg, 400 mg BID oral, n = 3, Day 1; read-out: AUC0–12h, GM (CV %)

structure.notation | AUC(0-t), ng·h/mL
CNC(=O)c1ccc(Nc2ncc(C(F)(F)F)c(NCc3nccnc3N(C)S(C)(=O)=O)n2)cc1 | 3370

====

measurement.description: phase 1 plasma pharmacokinetics, Cycle 1 Days 1 and 15
Format: in vivo, human
measurement.parameters: human, plasma, po, 600 mg, 600 mg BID oral, n = 3, Day 1; read-out: AUC0–12h, GM (CV %)
measurement.name: AUC(0-t) (ng·h/mL)

molecule | unit.descriptor | observed
CNC(=O)c1ccc(Nc2ncc(C(F)(F)F)c(NCc3nccnc3N(C)S(C)(=O)=O)n2)cc1 [VS-6063, defactinib] | ng·h/mL | 2680

====

measurement.description: phase 1 plasma pharmacokinetics, Cycle 1 Days 1 and 15
Type: in vivo, human
measurement.parameters: human, plasma, po, 200 mg, 200 mg BID oral, n = 3, Day 1; read-out: t 1/2, median (range) (converted)

structure.notation | half-life / h
CNC(=O)c1ccc(Nc2ncc(C(F)(F)F)c(NCc3nccnc3N(C)S(C)(=O)=O)n2)cc1 | 4.3

====

measurement.description: phase 1 plasma pharmacokinetics, Cycle 1 Days 1 and 15
Assay type: in vivo, human
measurement.parameters: human, plasma, po, 600 mg, 600 mg BID oral, n = 3, Day 1; read-out: t 1/2, median (range) (converted)
Method: Pharmacokinetic samples were to be collected for determination of VS-6063 concentration and potential metabolites at the time points of Pre-dose (within 30 min of VS-6063 dosing), postdose (15 min, 30 min, and 1, 2, 4, 8, 12, and 24 h after VS-6063 administration) during Cycle 1 on Days 1 and 15. The analytical laboratory measured plasma concentrations using a validated method. […] Cmax and Tmax were determined by direct assessment (no calculations) of the concentration versus time data. […]
measurement.name: half-life

compound | measurement.name | observed
CNC(=O)c1ccc(Nc2ncc(C(F)(F)F)c(NCc3nccnc3N(C)S(C)(=O)=O)n2)cc1 [VS-6063, defactinib] | half-life | 2.79 h

====

measurement.description: phase 1 plasma pharmacokinetics, Cycle 1 Days 1 and 15
Assay type: in vivo, human
measurement.parameters: human, plasma; 600 mg BID oral, n = 3, Day 1

structure.notation | unit.descriptor | AUC(0-inf)
CNC(=O)c1ccc(Nc2ncc(C(F)(F)F)c(NCc3nccnc3N(C)S(C)(=O)=O)n2)cc1 | ng·h/mL | 3000

====

measurement.description: phase 1 plasma pharmacokinetics, Cycle 1 Days 1 and 15
Type: in vivo, human
measurement.parameters: human, plasma, po, 200 mg, 200 mg BID oral, n = 3, Day 1
Description: Pharmacokinetic samples were to be collected for determination of VS-6063 concentration and potential metabolites at the time points of Pre-dose (within 30 min of VS-6063 dosing), postdose (15 min, 30 min, and 1, 2, 4, 8, 12, and 24 h after VS-6063 administration) during Cycle 1 on Days 1 and 15. The analytical laboratory measured plasma concentrations using a validated method. […] Cmax and Tmax were determined by direct assessment (no calculations) of the concentration versus time data. […]
measurement.name: Cmax (ng/mL)

structure.notation | observed
CNC(=O)c1ccc(Nc2ncc(C(F)(F)F)c(NCc3nccnc3N(C)S(C)(=O)=O)n2)cc1 | 630

====

measurement.description: phase 1 plasma pharmacokinetics, Cycle 1 Days 1 and 15
Type: in vivo, human
measurement.parameters: human, plasma, po, 200 mg, 200 mg BID oral, n = 3, Day 15; read-out: t 1/2, median (range) (converted)
Method: Pharmacokinetic samples were to be collected for determination of VS-6063 concentration and potential metabolites at the time points of Pre-dose (within 30 min of VS-6063 dosing), postdose (15 min, 30 min, and 1, 2, 4, 8, 12, and 24 h after VS-6063 administration) during Cycle 1 on Days 1 and 15. The analytical laboratory measured plasma concentrations using a validated method. […] Cmax and Tmax were determined by direct assessment (no calculations) of the concentration versus time data. […]
measurement.name: half-life (h)

structure.notation | unit.descriptor | observed
CNC(=O)c1ccc(Nc2ncc(C(F)(F)F)c(NCc3nccnc3N(C)S(C)(=O)=O)n2)cc1 | h | 2.95
